Tested on: KRAS patient-derived spheroids with HUVEC/MSC, viability
Assay: Anticancer human tumor 941728-121-R-J1-PDC patient-derived lung adenocarcinoma cell line growth inhibition [KRAS2]
Conditions: second compound 0.1 µM; first compound 1 µM; stronger effect = lower value
Provide the recorded viability, T/C for the entries that follow.
Answer format: numeric, % implied, no suffix.

Task item: Quick one: give measured viability, T/C for CCN1CCN(Cc2ccc(Nc3ncc(F)c(-c4cc(F)c5nc(C)n(C(C)C)c5c4)n3)nc2)CC1 + C=CC(=O)N1CCN(c2nc(=O)n(-c3c(C)ccnc3C(C)C)c3nc(-c4c(O)cccc4F)c(F)cc23)C(C)C1
Reply: 18.5

Task item: Quick one: give measured viability, T/C for CC1COCCN1c1cc(-c2ccnn2C)c2ccnc(-c3ccn[nH]3)c2n1 (stereo not drawn) + CNCc1ccccc1-c1csc(C(C)Nc2nc(C)nc3cc(OC)c(OC)cc23)c1
Reply: 28.2

Task item: Quick one: give measured viability, T/C for O=C(c1cc(Cc2n[nH]c(=O)c3ccccc23)ccc1F)N1CCN(C(=O)C2CC2)CC1 + C=CC(=O)N1CCN(c2nc(OCC3CCCN3C)nc3c2CCN(c2cccc4cccc(C)c24)C3)CC1CC#N
Reply: 32.5

----------
System: KRAS patient-derived spheroids with HUVEC/MSC, viability
Test: Anticancer human tumor 941728-121-R-J1-PDC cell line growth inhibition [KRAS2];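 further: spheroids exposed to agents for seven days before readout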
Settings: curve of first compound; second compound 0.1 µM
pIC50: −log10 of the molar value.
Provide the recorded pIC50 for the entries that follow.

Task item: Quick one: give measured pIC50 for CC1(C)CCC(CN2CCN(c3ccc(C(=O)NS(=O)(=O)c4ccc(NCC5CCOCC5)c([N+](=O)[O-])c4)c(Oc4cnc5[nH]ccc5c4)c3)CC2)=C(c2ccc(Cl)cc2)C1 + CC1OCC2(CCN(c3cnc(Sc4ccnc(N)c4Cl)c(N)n3)CC2)C1N
Reply: > 7.50

Task item: Quick one: give measured pIC50 for CC1OCC2(CCN(c3cnc(Sc4ccnc(N)c4Cl)c(N)n3)CC2)C1N (stereo unspecified) + C=CC(=O)N1CCN(c2nc(OCC3CCCN3C)nc3c2CCN(c2cccc4cccc(C)c24)C3)CC1CC#N
Reply: > 7.50

Task item: Quick one: give measured pIC50 for COc1cc2nccc(Oc3ccc(NC(=O)C4(C(=O)Nc5ccc(F)cc5)CC4)cc3)c2cc1OC + C=CC(=O)N1CCN(c2nc(=O)n(-c3c(C)ccnc3C(C)C)c3nc(-c4c(O)cccc4F)c(F)cc23)C(C)C1
Reply: > 7.50

Task item: Quick one: give measured pIC50 for CC(=O)Nc1cccc(-n2c(=O)n(C3CC3)c(=O)c3c(Nc4ccc(I)cc4F)n(C)c(=O)c(C)c32)c1 + CC1OCC2(CCN(c3cnc(Sc4ccnc(N)c4Cl)c(N)n3)CC2)C1N
Reply: > 10.00

Task item: Quick one: give measured pIC50 for COC(=O)c1ccc2c(C(=Nc3ccc(N(C)C(=O)CN4CCN(C)CC4)cc3)c3ccccc3)c(O)[nH]c2c1 + C=CC(=O)N1CCN(c2nc(=O)n(-c3c(C)ccnc3C(C)C)c3nc(-c4c(O)cccc4F)c(F)cc23)C(C)C1
Reply: > 7.50

Task item: Quick one: give measured pIC50 for COc1cc2nccc(Oc3ccc(NC(=O)C4(C(=O)Nc5ccc(F)cc5)CC4)cc3)c2cc1OC + CNCc1ccccc1-c1csc(C(C)Nc2nc(C)nc3cc(OC)c(OC)cc23)c1
Reply: 7.07

Task item: Quick one: give measured pIC50 for CC(=O)Nc1cccc(-n2c(=O)n(C3CC3)c(=O)c3c(Nc4ccc(I)cc4F)n(C)c(=O)c(C)c32)c1 + COc1cc2nc(C)nc(NC(C)c3cc(N)cc(C(F)(F)F)c3)c2cc1OC1CCOC1
Reply: 9.89

Task item: Quick one: give measured pIC50 for CC(C)NCC(C(=O)N1CCN(c2ncnc3c2C(C)CC3O)CC1)c1ccc(Cl)cc1 (stereo unspecified) + C=CC(=O)N1CCN(c2nc(OCC3CCCN3C)nc3c2CCN(c2cccc4cccc(C)c24)C3)CC1CC#N
Reply: > 7.50

Task item: Quick one: give measured pIC50 for COc1cc2nccc(Oc3ccc(NC(=O)C4(C(=O)Nc5ccc(F)cc5)CC4)cc3)c2cc1OC + CC1OCC2(CCN(c3cnc(Sc4ccnc(N)c4Cl)c(N)n3)CC2)C1N
Reply: > 7.50

Task item: Quick one: give measured pIC50 for CC1OCC2(CCN(c3cnc(Sc4ccnc(N)c4Cl)c(N)n3)CC2)C1N (stereo unspecified) + CNCc1ccccc1-c1csc(C(C)Nc2nc(C)nc3cc(OC)c(OC)cc23)c1
Reply: > 7.50

Task item: Quick one: give measured pIC50 for CCNC(=O)CC1N=C(c2ccc(Cl)cc2)c2cc(OC)ccc2-n2c(C)nnc21 (stereo unspecified) + CNCc1ccccc1-c1csc(C(C)Nc2nc(C)nc3cc(OC)c(OC)cc23)c1
Reply: 7.19

Task item: Quick one: give measured pIC50 for COc1cc(Nc2ncc3c(n2)-c2ccc(Cl)cc2C(c2c(F)cccc2OC)=NC3)ccc1C(=O)O + CNCc1ccccc1-c1csc(C(C)Nc2nc(C)nc3cc(OC)c(OC)cc23)c1
Reply: > 7.50

Task item: Quick one: give measured pIC50 for Cn1nccc1Nc1nccc(-c2cc3c(s2)C(C)(C)N(CCN2CCOCC2)C3=O)n1 + COc1cc2nc(C)nc(NC(C)c3cc(N)cc(C(F)(F)F)c3)c2cc1OC1CCOC1
Reply: 6.94

Task item: Quick one: give measured pIC50 for CC(=O)OC12COC1CC(O)C1(C)C(=O)C(O)C3=C(C)C(OC(=O)C(O)C(NC(=O)OC(C)(C)C)c4ccccc4)CC(O)(C(OC(=O)c4ccccc4)C21)C3(C)C (stereo unspecified) + COc1cc2nc(C)nc(NC(C)c3cc(N)cc(C(F)(F)F)c3)c2cc1OC1CCOC1
Reply: > 8.00

Task item: Quick one: give measured pIC50 for CC1COCCN1c1cc(-c2ccnn2C)c2ccnc(-c3ccn[nH]3)c2n1 (stereo unspecified) + C=CC(=O)N1CCN(c2nc(=O)n(-c3c(C)ccnc3C(C)C)c3nc(-c4c(O)cccc4F)c(F)cc23)C(C)C1
Reply: > 8.00

Task item: Quick one: give measured pIC50 for CCN1CCN(Cc2ccc(Nc3ncc(F)c(-c4cc(F)c5nc(C)n(C(C)C)c5c4)n3)nc2)CC1 + C=CC(=O)N1CCN(c2nc(OCC3CCCN3C)nc3c2CCN(c2cccc4cccc(C)c24)C3)CC1CC#N
Reply: > 8.50

Task item: Quick one: give measured pIC50 for CN(C)C/C=C/C(=O)Nc1cc2c(Nc3ccc(F)c(Cl)c3)ncnc2cc1O[C@H]1CCOC1 + C=CC(=O)N1CCN(c2nc(OCC3CCCN3C)nc3c2CCN(c2cccc4cccc(C)c24)C3)CC1CC#N
Reply: > 9.50

Task item: Quick one: give measured pIC50 for CC(C)n1nc(-c2ccc3oc(N)nc3c2)c2c(N)ncnc21 + CC1OCC2(CCN(c3cnc(Sc4ccnc(N)c4Cl)c(N)n3)CC2)C1N
Reply: > 9.50

Task item: Quick one: give measured pIC50 for O=C(c1cc(Cc2n[nH]c(=O)c3ccccc23)ccc1F)N1CCN(C(=O)C2CC2)CC1 + C=CC(=O)N1CCN(c2nc(=O)n(-c3c(C)ccnc3C(C)C)c3nc(-c4c(O)cccc4F)c(F)cc23)C(C)C1
Reply: > 7.50

Task item: Quick one: give measured pIC50 for COc1cc(Nc2ncc3c(n2)-c2ccc(Cl)cc2C(c2c(F)cccc2OC)=NC3)ccc1C(=O)O + C=CC(=O)N1CCN(c2nc(OCC3CCCN3C)nc3c2CCN(c2cccc4cccc(C)c24)C3)CC1CC#N
Reply: > 7.50

Task item: Quick one: give measured pIC50 for CC1COCCN1c1cc(-c2ccnn2C)c2ccnc(-c3ccn[nH]3)c2n1 (stereo unspecified) + CNCc1ccccc1-c1csc(C(C)Nc2nc(C)nc3cc(OC)c(OC)cc23)c1
Reply: 7.63

----------
Tested on: KRAS patient-derived spheroids with HUVEC/MSC, viability
Test: Anticancer human tumor 941728-121-R-J1-PDC cell line growth inhibition [KRAS2];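 further: spheroids exposed to agents for seven days before readout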
Conditions: curve of first compound; second compound 1 µM
pIC50: −log10 of the molar value.
Provide the recorded pIC50 for the entries that follow.

Task item: Quick one: give measured pIC50 for Cn1nccc1Nc1nccc(-c2cc3c(s2)C(C)(C)N(CCN2CCOCC2)C3=O)n1 + CNCc1ccccc1-c1csc(C(C)Nc2nc(C)nc3cc(OC)c(OC)cc23)c1
Reply: > 7.50

Task item: Quick one: give measured pIC50 for CCNC(=O)CC1N=C(c2ccc(Cl)cc2)c2cc(OC)ccc2-n2c(C)nnc21 (stereo not given) + C=CC(=O)N1CCN(c2nc(=O)n(-c3c(C)ccnc3C(C)C)c3nc(-c4c(O)cccc4F)c(F)cc23)C(C)C1
Reply: > 7.50

Task item: Quick one: give measured pIC50 for CC(=O)OC12COC1CC(O)C1(C)C(=O)C(O)C3=C(C)C(OC(=O)C(O)C(NC(=O)OC(C)(C)C)c4ccccc4)CC(O)(C(OC(=O)c4ccccc4)C21)C3(C)C (stereo not given) + CNCc1ccccc1-c1csc(C(C)Nc2nc(C)nc3cc(OC)c(OC)cc23)c1
Reply: > 8.00

Task item: Quick one: give measured pIC50 for O=C(c1cc(Cc2n[nH]c(=O)c3ccccc23)ccc1F)N1CCN(C(=O)C2CC2)CC1 + C=CC(=O)N1CCN(c2nc(=O)n(-c3c(C)ccnc3C(C)C)c3nc(-c4c(O)cccc4F)c(F)cc23)C(C)C1
Reply: > 7.50

Task item: Quick one: give measured pIC50 for COc1cc(Nc2ncc3c(n2)-c2ccc(Cl)cc2C(c2c(F)cccc2OC)=NC3)ccc1C(=O)O + C=CC(=O)N1CCN(c2nc(=O)n(-c3c(C)ccnc3C(C)C)c3nc(-c4c(O)cccc4F)c(F)cc23)C(C)C1
Reply: > 7.50
